# Experimental System: chorismate-pyruvate lyase of Providencia burhodogranariea (Providencia burhodogranariea, UniProt K8VY45)
# Sequence (K8VY45 entry or part of it): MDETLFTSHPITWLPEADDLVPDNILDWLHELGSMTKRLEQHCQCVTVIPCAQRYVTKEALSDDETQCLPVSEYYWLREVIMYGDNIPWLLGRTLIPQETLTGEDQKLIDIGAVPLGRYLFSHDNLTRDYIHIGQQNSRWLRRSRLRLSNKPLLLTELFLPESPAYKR
# Protocol Summary: Product inhibition of chorismate-pyruvate lyase activity by 4-HBA (IC50)
# Condition Label: cell lysate supernatant of strain HBA7
pIC50: −log10 of the molar value.
Outcome Measure: pIC50

O=C(O)c1ccc(O)cc1 [Strain 4-HBA, 4-hydroxybenzoic acid] | 3.40

* * *

# Experimental System: chorismate-pyruvate lyase of Morganella morganii (Morganella morganii, UniProt M1SIE1)
# Sequence (M1SIE1 entry or part of it): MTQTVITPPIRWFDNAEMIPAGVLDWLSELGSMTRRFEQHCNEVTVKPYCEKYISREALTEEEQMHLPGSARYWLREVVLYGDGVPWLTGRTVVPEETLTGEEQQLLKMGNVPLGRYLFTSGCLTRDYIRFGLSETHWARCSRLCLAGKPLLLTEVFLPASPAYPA
# Protocol Summary: Product inhibition of chorismate-pyruvate lyase activity by 4-HBA (IC50)
# Condition Label: cell lysate supernatant of strain HBA18
# Protocol: Each kind of the bacterial cells cultured and proliferated as above was collected by centrifugation (8,000 rpm, 4° C., 10 minutes). After disrupting the bacterial cells by sonication, centrifugation (15,000 rpm, 4° C., 20 minutes) was performed. Using the supernatant of the cell lysate as a crude enzyme liquid, chorismate-pyruvate lyase activity was determined by the following method. […]
Outcome Measure: IC50 (µM)

O=C(O)c1ccc(O)cc1 [Strain 4-HBA, 4-hydroxybenzoic acid] | 61

* * *

# Experimental System: chorismate-pyruvate lyase of Cronobacter sakazakii (Cronobacter sakazakii)
# Construct: 5′-[…]-3′
# Sequence (A7MPN9 whole entry, looked up): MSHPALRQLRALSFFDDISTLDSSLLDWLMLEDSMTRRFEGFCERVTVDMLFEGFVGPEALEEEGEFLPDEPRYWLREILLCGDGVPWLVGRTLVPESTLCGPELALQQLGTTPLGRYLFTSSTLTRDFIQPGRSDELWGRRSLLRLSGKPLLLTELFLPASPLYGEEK
# Protocol Summary: Product inhibition of chorismate-pyruvate lyase activity by 4-HBA (IC50)
# Assay type: biochemical
# Condition Label: cell lysate supernatant of strain HBA12
pIC50: −log10 of the molar value.
Outcome Measure: pIC50

O=C(O)c1ccc(O)cc1 [Strain 4-HBA, 4-hydroxybenzoic acid] | 4.12

* * *

# Experimental System: chorismate-pyruvate lyase of Pseudoalteromonas piscicida (Pseudoalteromonas piscicida, UniProt A0ABN5CDX6, M1V)
# Sequence (A0ABN5CDX6 1-160, stated change not applied): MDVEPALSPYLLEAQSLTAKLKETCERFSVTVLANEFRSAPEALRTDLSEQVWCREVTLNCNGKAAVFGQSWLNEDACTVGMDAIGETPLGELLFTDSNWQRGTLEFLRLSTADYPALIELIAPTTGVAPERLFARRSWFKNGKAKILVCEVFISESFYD
# Protocol Summary: Product inhibition of chorismate-pyruvate lyase activity by 4-HBA (IC50)
# Condition Label: cell lysate supernatant of strain HBA10
pIC50: −log10 of the molar value.
Outcome Measure: pIC50

O=C(O)c1ccc(O)cc1 [Strain 4-HBA, 4-hydroxybenzoic acid] | 4.14

* * *

# Experimental System: chorismate-pyruvate lyase of Cupriavidus taiwanensis (Cupriavidus taiwanensis)
# Sequence (B3R6T5 entry or part of it): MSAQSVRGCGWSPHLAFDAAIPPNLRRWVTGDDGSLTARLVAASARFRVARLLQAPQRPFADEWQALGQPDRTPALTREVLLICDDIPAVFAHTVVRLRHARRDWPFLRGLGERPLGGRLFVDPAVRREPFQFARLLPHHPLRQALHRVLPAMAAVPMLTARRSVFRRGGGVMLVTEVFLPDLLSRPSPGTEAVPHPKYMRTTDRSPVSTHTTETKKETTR
Outcome Measure: IC50 (µM)

O=C(O)c1ccc(O)cc1 [Strain 4-HBA, 4-hydroxybenzoic acid] | 149

* * *

# Experimental System: chorismate-pyruvate lyase of Pantoea ananatis (Pantoea ananatis, UniProt A0ACE3JNM4)
# Sequence (A0ACE3JNM4 1-170): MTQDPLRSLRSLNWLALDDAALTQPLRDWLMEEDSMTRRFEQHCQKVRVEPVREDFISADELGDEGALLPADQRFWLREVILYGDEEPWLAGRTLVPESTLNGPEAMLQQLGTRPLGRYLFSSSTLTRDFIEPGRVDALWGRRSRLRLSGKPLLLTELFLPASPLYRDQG
# Protocol Summary: Product inhibition of chorismate-pyruvate lyase activity by 4-HBA (IC50)
# Condition Label: cell lysate supernatant of strain HBA1
pIC50: −log10 of the molar value.
Outcome Measure: pIC50

O=C(O)c1ccc(O)cc1 [Strain 4-HBA, 4-hydroxybenzoic acid] | 4.16

* * *

# Experimental System: chorismate-pyruvate lyase of Providencia stuartii (Providencia stuartii, UniProt A0A1S1HSD5)
# Sequence (A0A1S1HSD5 entry or part of it): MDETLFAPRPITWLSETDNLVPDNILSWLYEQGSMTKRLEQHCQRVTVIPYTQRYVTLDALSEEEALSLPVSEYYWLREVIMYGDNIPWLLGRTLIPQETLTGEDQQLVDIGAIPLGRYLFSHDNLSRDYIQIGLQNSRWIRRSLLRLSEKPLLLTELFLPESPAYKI
# Protocol Summary: Product inhibition of chorismate-pyruvate lyase activity by 4-HBA (IC50)
# Condition Label: cell lysate supernatant of strain HBA3
Outcome Measure: IC50 (µM)

O=C(O)c1ccc(O)cc1 [Strain 4-HBA, 4-hydroxybenzoic acid] | 368
